# target.under.test: CSF-1R (Homo sapiens, UniProt P07333)
# Sequence (P07333 20-972): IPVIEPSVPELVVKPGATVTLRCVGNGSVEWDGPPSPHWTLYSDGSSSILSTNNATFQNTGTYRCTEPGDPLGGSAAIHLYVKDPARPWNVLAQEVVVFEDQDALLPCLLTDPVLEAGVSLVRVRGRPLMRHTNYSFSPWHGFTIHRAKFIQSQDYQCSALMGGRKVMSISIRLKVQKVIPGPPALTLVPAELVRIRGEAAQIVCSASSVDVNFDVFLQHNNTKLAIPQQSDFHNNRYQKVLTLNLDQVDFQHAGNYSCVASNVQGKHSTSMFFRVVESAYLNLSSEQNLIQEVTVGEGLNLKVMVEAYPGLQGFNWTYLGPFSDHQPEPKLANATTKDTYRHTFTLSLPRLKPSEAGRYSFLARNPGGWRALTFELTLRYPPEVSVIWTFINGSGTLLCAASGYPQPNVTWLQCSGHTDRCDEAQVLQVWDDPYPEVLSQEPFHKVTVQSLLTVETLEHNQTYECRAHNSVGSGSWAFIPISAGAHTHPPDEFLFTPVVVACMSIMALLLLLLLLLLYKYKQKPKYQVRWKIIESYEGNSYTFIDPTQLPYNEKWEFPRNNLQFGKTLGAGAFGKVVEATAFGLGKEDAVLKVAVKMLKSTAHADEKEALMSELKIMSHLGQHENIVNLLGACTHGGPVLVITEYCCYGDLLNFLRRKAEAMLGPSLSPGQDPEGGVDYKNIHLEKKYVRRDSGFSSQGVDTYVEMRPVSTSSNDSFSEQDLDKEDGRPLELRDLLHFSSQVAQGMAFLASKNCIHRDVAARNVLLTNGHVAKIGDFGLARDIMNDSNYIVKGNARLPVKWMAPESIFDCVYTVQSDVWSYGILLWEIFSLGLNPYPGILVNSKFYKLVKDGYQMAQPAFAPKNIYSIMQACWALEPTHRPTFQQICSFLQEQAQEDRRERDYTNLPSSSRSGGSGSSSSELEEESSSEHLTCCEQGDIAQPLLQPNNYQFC
# test: Peptide (non-phosphorylated) assay, fluorescence polarization competition immunoassay
# Format: biochemical
# details: 0.7 nM CSF-1R, 308 μM SYEGNSYTFIDPTQ peptide, 1 mM ATP, 80 min; mean of at least three determinations; read-out: c-fms Peptide IC50
pIC50: −log10 of the molar value.
readout.label: pIC50

{"columns": ["compound", "readout.label", "endpoint.value"],
 "data": [
  ["CCONC(=O)c1cn(-c2ccc(CC)cc2)c2nc(Nc3ccc(CCN4CCN(C)CC4)cc3)ncc2c1=O", "pIC50", 9.22],
  ["CONC(=O)c1cn(-c2ccc3c(c2)CCC3)c2nc(Nc3ccc(CCN4CCC5(CC4)OCCCO5)cc3)ncc2c1=O", "pIC50", 9.08],
  ["CCc1ccc(-n2cc(C(=O)NOC)c(=O)c3cnc(Nc4cccc(OC5CCCNC5)c4)nc32)cc1 (centres unmarked)", "pIC50", 9.37]
]}

[A] NC(=O)c1cn(-c2ccc3c(c2)CCC3)c2nc(Nc3ccc(CN4CCCC4=O)cc3)ncc2c1=O
[B] CONC(=O)c1cn(-c2ccc3c(c2)CCC3)c2nc(Nc3ccc(CCN4CC(F)C4)cc3)ncc2c1=O
Asked: Hi, I'm comparing A with B and wondering which one has the bigger number for pIC50. Any idea? State your choice using its label.
Given back: B

[P] CONC(=O)c1cn(-c2ccc3c(c2)CCC3)c2nc(Nc3ccc(CCN4CCC(F)(F)C4)cc3)ncc2c1=O
[Q] CONC(=O)c1cn(-c2ccc3c(c2)CCC3)c2nc(Nc3cccc(C4CCN(C)CC4)c3)ncc2c1=O
Asked: Which of the two items, P and Q , has the greater recorded pIC50? Return value: the label identifying the chosen record.
Given back: Q
(Q: 9.00, P: 8.77)

###

# target.under.test: CSF-1R (Homo sapiens)
# test: Peptide (non-phosphorylated) assay, fluorescence polarization competition immunoassay
# Type: biochemical
# details: 0.7 nM CSF-1R, 308 μM SYEGNSYTFIDPTQ peptide, 1 mM ATP, 80 min; mean of at least three determinations; read-out: c-fms Peptide IC50
readout.label: IC50 (nM)

{"columns": ["molecule", "endpoint.value"],
 "data": [
  ["CONC(=O)c1cn(-c2ccc3c(c2)CCC3)c2nc(Nc3ccc(CCN(C)C4CCOCC4)cc3)ncc2c1=O", 0.62]
]}

[I] CCc1ccc(-n2cc(C(=O)NOC)c(=O)c3cnc(Nc4cccc(NC(=O)CN(C)C)c4)nc32)cc1
[II] CCc1ccc(-n2cc(C(=O)NOC)c(=O)c3cnc(Nc4ccc5c(c4)CCN5S(C)(=O)=O)nc32)cc1
Asked: Which has the smaller recorded IC50, I or II ? Write the label of whichever entry you select.
Given back: II
(II: 0.4 nM, I: 0.68 nM)

###

# target.under.test: UniProt P07333
# test: Peptide (non-phosphorylated) assay, fluorescence polarization competition immunoassay
# Type: biochemical
# details: 0.7 nM CSF-1R, 308 μM SYEGNSYTFIDPTQ peptide, 1 mM ATP, 80 min; mean of at least three determinations; read-out: c-fms Peptide IC50
readout.label: IC50 (nM)

# count of solved cases: 4
{"columns": ["molecule", "target.under.test", "IC50 [nM]"],
 "data": [
  ["CONC(=O)c1cn(-c2ccc3c(c2)CCC3)c2nc(Nc3ccc(C4CCCCN4)cc3)ncc2c1=O (stereo not drawn) [Cpd 246]", "UniProt P07333", 0.38],
  ["CONC(=O)c1cn(-c2ccc3c(c2)CCC3)c2nc(Nc3ccc4[nH]ccc4c3)ncc2c1=O [Cpd 287]", "UniProt P07333", 0.9],
  ["CCc1ccc(-n2cc(C(=O)NOC)c(=O)c3cnc(Nc4ccc(-n5cccc5)cc4)nc32)cc1 [Cpd 317]", "UniProt P07333", 5.5],
  ["CONC(=O)c1cn(-c2ccc3c(c2)CCC3)c2nc(Nc3ccc(CCN4CCCC4)cc3)ncc2c1=O [Cpd 130]", "UniProt P07333", 1.6]
]}

[P] CCONC(=O)c1cn(-c2ccc3c(c2)CCC3)c2nc(Nc3ccc(C4CCN(C)CC4)cc3)ncc2c1=O [Cpd 139]
[Q] CCc1ccc(-n2cc(C(=O)NOC(C)C)c(=O)c3cnc(Nc4ccc(C5CCN(CC)CC5)cc4)nc32)cc1 [Cpd 182]
Asked: Short answer wanted: higher IC50, P or Q ? Identify your selection by its label.
Given back: P

[A] CONC(=O)c1cn(-c2ccc3c(c2)CCC3)c2nc(Nc3ccc(CCN4CCNCC4)cc3)ncc2c1=O [Cpd 144]
[B] CONC(=O)c1cn(-c2ccc3c(c2)CCC3)c2nc(Nc3ccc(CCN4CCN(C(=O)C(F)(F)F)CC4)cc3)ncc2c1=O [Cpd 148]
Asked: Identify the item whose IC50 is the smaller number: A or B Respond using the label that marks the chosen record.
Given back: A
(A: 0.4 nM, B: 1.2 nM)

[P] COCCOc1ccc(Nc2ncc3c(=O)c(C(=O)NOC)cn(-c4ccc5c(c4)CCC5)c3n2)cc1 [Cpd 258]
[Q] CCc1ccc(-n2cc(C(=O)NOC)c(=O)c3cnc(Nc4cccc(C5(O)CCCN(CC)C5)c4)nc32)cc1 (stereo not drawn) [Cpd 278]
[R] CCc1ccc(-n2cc(C(=O)NOC)c(=O)c3cnc(Nc4ccc(C5CCN(CCOC)CC5)cc4)nc32)cc1 [Cpd 207]
[S] CCN1CCC(Oc2ccc(Nc3ncc4c(=O)c(C(=O)NOC)cn(-c5ccc6c(c5)CCC6)c4n3)cc2)CC1 [Cpd 312]
Asked: Please rank these molecules by IC50 in descending order. Kindly provide the labels arranged according to the requested ordering.
Given back: Q, P, R, S
(Q: 4.9 nM, P: 0.94 nM, R: 0.3 nM, S: 0.2 nM)

[1] CCc1ccc(-n2cc(C(=O)NOC)c(=O)c3cnc(Nc4ccc(CCN5CCN(C)C(=O)C5)cc4)nc32)cc1 [Cpd 221]
[2] CONC(=O)c1cn(-c2ccc3c(c2)CCC3)c2nc(Nc3ccc(S(=O)(=O)N4CCN(C)CC4)cc3)ncc2c1=O [Cpd 154]
[3] CONC(=O)c1cn(-c2ccc3c(c2)CCC3)c2nc(Nc3ccc(CCN4CCC[C@@H]4CO)cc3)ncc2c1=O [Cpd 101]
Asked: List the 3 entries from lowest IC50 to highest IC50 value. Put the labels in the order asked and list them.
Given back: 3, 1, 2
(3: 0.55 nM, 1: 0.87 nM, 2: 7.3 nM)

###

# target.under.test: UniProtKB P07333
# test: Peptide (non-phosphorylated) assay, fluorescence polarization competition immunoassay
# Type: biochemical
# details: 0.7 nM CSF-1R, 308 μM SYEGNSYTFIDPTQ peptide, 1 mM ATP, 80 min; mean of at least three determinations; read-out: c-fms Peptide IC50
pIC50: −log10 of the molar value.
readout.label: pIC50

Known results for compounds:
{"columns": ["compound", "pIC50"],
 "data": [
  ["CONC(=O)c1cn(-c2ccc3c(c2)CCC3)c2nc(Nc3ccc(C4C[C@@]5(C)O[C@@](C)(C4)[C@H]4OC(C)(C)O[C@H]45)cc3)ncc2c1=O (stereo partly drawn) [Cpd 315]", 9.30],
  ["CCN1CCCC1CNC(=O)c1cccc(Nc2ncc3c(=O)c(C(=O)NOC)cn(-c4ccc5c(c4)CCC5)c3n2)c1 (stereo not drawn) [Cpd 193]", 8.60],
  ["CONC(=O)c1cn(C2CCCC2)c2nc(Nc3ccc(N4CCCC4)cc3)ncc2c1=O [Cpd 35]", 8.66],
  ["CN1CCC(c2ccc(Nc3ncc4c(=O)c(C(=O)O)cn(-c5ccc6c(c5)CCC6)c4n3)cc2)CC1 [Cpd 222]", 7.54],
  ["CCONC(=O)c1cn(-c2ccc(CC)cc2)c2nc(Nc3ccc(C4CCN(CCO)CC4)cc3)ncc2c1=O [Cpd 183]", 9.40]
]}

[P] CONC(=O)c1cn(-c2ccc3c(c2)C=CC3)c2nc(Nc3ccc(C4CCN(C)CC4)cc3)ncc2c1=O [Cpd 259]
[Q] CONC(=O)c1cn(-c2ccc3c(c2)CCC3)c2nc(Nc3ccc4c(ccn4C)c3)ncc2c1=O [Cpd 291]
Asked: Could you kindly indicate whether P or Q has the higher pIC50 value? Please indicate the selected item by its label.
Given back: P
(P: 9.15, Q: 8.89)

[A] CCONC(=O)c1cn(-c2ccc(CC)cc2)c2nc(Nc3ccc(C4CCN(CCCO)CC4)cc3)ncc2c1=O [Cpd 186]
[B] CCc1ccc(-n2cc(C(=O)NOC)c(=O)c3cnc(Nc4ccc5cn[nH]c5c4)nc32)cc1 [Cpd 288]
[C] CONC(=O)c1cn(-c2ccc3c(c2)CCC3)c2nc(Nc3ccc(OC4CCNCC4)cc3)ncc2c1=O [Cpd 311]
Asked: Sort these compounds on pIC50 so the largest reading comes first. Could you list the labels in the order requested?
Given back: C, A, B

[a] CONC(=O)c1cn(-c2ccc3c(c2)CCC3)c2nc(Nc3ccc(CCN4CCN(C)C(=O)C4)cc3)ncc2c1=O [Cpd 220]
[b] CONC(=O)c1cn(-c2ccc3c(c2)CCC3)c2nc(Nc3ccc(Cc4nnn[nH]4)cc3)ncc2c1=O [Cpd 91]
Asked: Quick one: lower pIC50, a or b ? API: response body contains the label of the selected item.
Given back: b
(b: 8.70, a: 9.12)

[P] CCc1ccc(-n2cc(C(=O)NOC)c(=O)c3cnc(Nc4ccc5c(c4)CC(=O)N5)nc32)cc1 [Cpd 304]
[Q] CONC(=O)c1cn(-c2ccc3c(c2)CCC3)c2nc(Nc3cccc(-n4cncn4)c3)ncc2c1=O [Cpd 174]
Asked: Could you kindly indicate whether P or Q has the higher pIC50 value? Kindly state the label of the option you pick.
Given back: P

[A] CCc1ccc(-n2cc(C(=O)NOC)c(=O)c3cnc(Nc4cc(OC)c(OC)c(OC)c4)nc32)cc1 [Cpd 305]
[B] CNS(=O)(=O)CCc1ccc(Nc2ncc3c(=O)c(C(=O)NOC)cn(-c4ccc5c(c4)CCC5)c3n2)cc1 [Cpd 89]
Asked: Kindly identify which of A and B has the larger recorded pIC50 value. State the label of the item chosen.
Given back: A
(A: 9.15, B: 8.85)

[P] CCc1ccc(-n2cc(C(=O)NOC)c(=O)c3cnc(Nc4ccc(CCN5CCNC(=O)C5)cc4)nc32)cc1 [Cpd 224]
[Q] CONC(=O)c1cn(C2CCCCC2)c2nc(Nc3ccc(N4CC(C)NC(C)C4)cc3)ncc2c1=O (stereo not drawn) [Cpd 24]
[R] CONC(=O)c1cn(-c2ccc3c(c2)CCC3)c2nc(Nc3ccc(C4CCN(CC(F)(F)C(F)(F)F)CC4)cc3)ncc2c1=O [Cpd 293]
[S] CONC(=O)c1cn(-c2ccc(OC(F)(F)F)cc2)c2nc(Nc3ccc(CCN4CCN(C)CC4)cc3)ncc2c1=O [Cpd 175]
Asked: Highest pIC50 first, then in falling order down to the smallest. Respond with the label ranking, as requested.
Given back: P, S, Q, R

[a] CCONC(=O)c1cn(-c2ccc3c(c2)CCC3)c2nc(Nc3ccc(C[C@H]4COC(=O)N4)cc3)ncc2c1=O [Cpd 68]
[b] CCONC(=O)c1cn(C2CCCCC2)c2nc(Nc3ccc(C4CCN(C)CC4)cc3)ncc2c1=O [Cpd 141]
[c] CONC(=O)c1cn(-c2ccc3c(c2)CCC3)c2nc(Nc3ccc(CCC(=O)NS(C)(=O)=O)cc3)ncc2c1=O [Cpd 153]
[d] CCNC(=O)c1cn(-c2ccc3c(c2)CCC3)c2nc(Nc3cccc(CCCN(C)C)c3)ncc2c1=O [Cpd 117]
Asked: # rank_down: sort by pIC50, max first Please list the labels according to the requested order.
Given back: a, b, c, d
(a: 9.15, b: 8.89, c: 8.49, d: 8.19)

[I] CCc1ccc(-n2cc(C(=O)NOC)c(=O)c3cnc(Nc4cccc(N5CCN(C)CC5)c4)nc32)cc1 [Cpd 321]
[II] CCONC(=O)c1cn(C2CCCC2)c2nc(Nc3ccc(C4CCN(C(C)=O)CC4)cc3)ncc2c1=O [Cpd 47]
Asked: API: POST /compare with I and II ; response names the item with higher pIC50. Pick one and reply with its label.
Given back: I
